experimentalSystem: Cbl-b (Homo sapiens)
method: Cbl-b inhibition assay (Cbl-b activity assay, FRET, Biological Example 1; 100 mM NaCl, 60 nM Src kinase)
Type: biochemical
setupConditions: IC50 values in the Cbl-b inhibition assay of Biological Example 1
pIC50: −log10 of the molar value.
reportedMetric: pIC50

Data request: Value lookup for pIC50; key = "Cn1cnnc1CC1(c2cccc(NC(=O)c3nc(C(F)(F)F)cs3)c2)COC1"
Data returned: ≥ 6.00

###

experimentalSystem: Cbl-b (Homo sapiens, UniProt Q13191)
Sequence (Q13191 36-427): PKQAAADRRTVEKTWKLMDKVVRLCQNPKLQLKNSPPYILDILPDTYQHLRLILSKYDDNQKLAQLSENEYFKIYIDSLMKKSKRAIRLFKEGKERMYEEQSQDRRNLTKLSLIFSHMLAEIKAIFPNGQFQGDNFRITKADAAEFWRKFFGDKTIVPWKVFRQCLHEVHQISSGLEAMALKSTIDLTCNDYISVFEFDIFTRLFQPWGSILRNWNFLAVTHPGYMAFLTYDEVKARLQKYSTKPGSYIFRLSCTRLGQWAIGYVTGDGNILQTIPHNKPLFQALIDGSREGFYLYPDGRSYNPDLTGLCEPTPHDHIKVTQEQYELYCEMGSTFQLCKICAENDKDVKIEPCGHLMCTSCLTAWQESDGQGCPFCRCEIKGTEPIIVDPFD
method: Cbl-b inhibition assay (Cbl-b activity assay, FRET, Biological Example 1; 100 mM NaCl, 60 nM Src kinase)
Type: biochemical
setupConditions: upper bound stated in text lists; read-out: IC50 values in the Cbl-b inhibition assay of Biological Example 1
reportedMetric: IC50

Solved cases (3 shown):
COc1ccc(C(C)Sc2nncn2C)cc1NC(=O)c1ccc2ccccc2n1 (stereo not shown) ... ≤ 10000 nM
C[C@H](Sc1nncn1C)c1cccc(NC(=O)c2cccc(C3CC3)n2)c1 ... ≤ 100 nM
CN1CC2CCC(C1)N2c1cc2c(c(C(F)(F)F)c1)CN(c1cccc([C@@](C)(F)C(F)(F)c3nncn3C)c1)C2=O ... ≤ 100 nM

Data request: Value lookup for IC50; key = "C[C@H](Cc1nncn1C)c1cccc(NC(=O)c2cc(N[C@H]3CC[C@@H](O)C3)ccn2)c1"
Data returned: ≤ 1000 nM

###

System: T-cell
method: IL-2 secretion from T-cells co-stimulated with anti-CD3 and anti-CD28 antibody (Biological Example 2)
Format: cell-based, human
setupConditions: Homo sapiens, T-cell, fold change over baseline; 1 μM Cbl-b inhibitor; primary human total T-cells; read-out: IL-2 secretion Anti-CD3/Anti-CD28 stimulation
fold induction at 1 µM values for the compounds below.

Data request: Value lookup for fold induction at 1 µM; key = Cn1cnnc1CC(C)(C)c1cccc(N2Cc3c(cccc3C(F)(F)F)C2=O)c1 [Compound 300]
Data returned: 2.51 to 5

Data request: Value lookup for fold induction at 1 µM; key = C[C@H](Cc1nncn1C1CC1)c1cccc(N2Cc3c(cccc3C(F)(F)F)C2=O)c1 [Compound 265]
Data returned: 1.01 to 2.5

Data request: Value lookup for fold induction at 1 µM; key = C[C@H](Cc1nncn1C)c1cccc(NC(=O)c2cc(C(=O)N3CC[C@](C)(O)C3)ccn2)c1 [Compound 222]
Data returned: < 1

Data request: Value lookup for fold induction at 1 µM; key = C[C@H](Sc1nncn1C)c1cccc(NC(=O)c2cc(C(=O)N3CC(O)C3)ccn2)c1 [Compound 148]
Data returned: < 1

###

System: primary human total T-cells
method: T-cell activation assessed by cytokine secretion (GM-CSF, IFNγ, TNFα)
Type: cell-based
setupConditions: CD3/CD28 stimulation, 1.11 μM, read-out: GM-CSF secretion
reportedMetric: fold induction at 1.11 µM

C[C@H](Cc1nncn1C)c1cccc(N2Cc3c(cccc3C(F)(F)F)C2=O)c1 [Compound 255a] ... ≤ 1.5
C[C@H](Cc1nncn1C)c1cccc(N2Cc3c(cc(CN4CC(C)(O)C4)cc3C(F)(F)F)C2=O)c1 ... 2.01 to 4
Cn1cnnc1CC1(c2cccc(N3Cc4c(cc(CN5CCC6(CC6)C5)cc4C(F)(F)F)C3=O)c2)COC1 ... > 4

// switching to the query molecule
Data request: What value of fold induction at 1.11 µM on primary human total T-cells does "Cn1cnnc1CC1(c2cccc(N3Cc4c(cc(CN5CC[C@H](C#N)C5)cc4C(F)(F)F)C3=O)c2)COC1" have?
Data returned: 2.01 to 4
